System: Escherichia coli K-12 BW25113
Experiment: relative growth (OD600 normalised to plate interquartile mean) (fraction); higher = less growth inhibition, active = 0.2 or less
Details: 50 µM; LB; incubation time: overnight (16-24 h)
The campaign covered roughly 39,000 compounds. About 220 (0.56%) showed activity. What follows is part of a selection rich in actives, with near analogues and random picks from the rest.
result-type: relative growth
API doc: respond with a numeric literal and nothing else, no unit.

Below, each entry is followed by its recorded relative growth result.
- compound: "O=C1C=CC(=O)N1"
  result-type: "relative growth"
  recorded-measurement: 0.0291
- compound: "C[C@H]1CN([C@@H](C)CO)C(=O)c2cc(N(C)C)ccc2O[C@H]1CN(C)S(C)(=O)=O"
  result-type: "relative growth"
  recorded-measurement: 0.993
- compound: "CC1(C)SC2C(NC(=O)Cc3ccccc3)C(=O)N2C1C(=O)[O-].[K+] (stereo not given)"
  result-type: "relative growth"
  recorded-measurement: 0.576

Q: Entry CCNC(=O)[C@@H]1[C@@H](CO)[C@@H]2Cn3c(ccc(-c4cccc(C(=O)N(C)C)c4)c3=O)[C@H]1N2 has what relative growth?
Result: 1.02

Q: Entry COc1ccc(C2=C(N)C(=O)NC2=O)cc1OC has what relative growth?
Result: 0.93

Q: Entry COc1cc(O)cc(OC)c1OC has what relative growth?
Result: 1.1

Q: Entry CO[C@@H]1CN(C)C(=O)c2cc(NS(=O)(=O)CC(F)(F)F)ccc2OC[C@@H](C)N(C(=O)c2ccc3c(c2)OCO3)C[C@H]1C has what relative growth?
Result: 0.937

Q: Entry O=C1OC(=O)[C@H]2[C@@H]1[C@H]1CC[C@H]2O1 has what relative growth?
Result: 0.16

Q: Entry CC(=O)OCC1=C(C(=O)[O-])N2C(=O)C(NC(=O)CSc3ccncc3)C2SC1.[Na+] (stereo not given) has what relative growth?
Result: 0.797

Q: Entry C[C@H]1CN([C@@H](C)CO)S(=O)(=O)c2ccc(Br)cc2O[C@@H]1CN(C)C(=O)c1cccnc1 has what relative growth?
Result: 0.972

----------
Below is a list of entries, each paired with its recorded relative growth value.
System: Escherichia coli K-12 BW25113;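 note: Wild-type cells incubated without shaking, value is the mean of two biological replicates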
Test: relative growth (OD600 normalised to plate interquartile mean) (fraction); higher = less growth inhibition, active = 0.2 or less
Settings: 50 µM; LB; incubation time: overnight (16-24 h)
Out of some 39,000 compounds screened, about 220 (0.56%) showed activity. Many of the other results were omitted from the sample, so actives are more common in it than they were.

Below, each entry is followed by its recorded relative growth result.
- compound-string: "C[C@H](CO)N1C[C@H](C)[C@@H](CN(C)C(=O)CN(C)C)Oc2ncc(-c3ccc(C(=O)N(C)C)cc3)cc2C1=O"
  relative growth: "0.975 (inactive)"
- compound-string: "COc1ccc(S(=O)(=O)Nc2ccc3c(c2)C(=O)N([C@@H](C)CO)C[C@H](C)[C@H](CN(C)S(=O)(=O)c2ccc(F)cc2)O3)cc1"
  relative growth: "1 (inactive)"
- compound-string: "Cc1ccc(S(=O)(=O)N(C)C[C@@H]2OCCCC[C@@H](C)Oc3ccc(NC(=O)Nc4c(C)noc4C)cc3C(=O)N([C@H](C)CO)C[C@@H]2C)cc1"
  relative growth: "1 (inactive)"
- compound-string: "COc1ccc(NC(=O)N(C)C[C@@H]2OCCCC[C@@H](C)Oc3ccc(NC(=O)Nc4ccccc4)cc3C(=O)N([C@H](C)CO)C[C@@H]2C)cc1"
  relative growth: "1.01 (inactive)"

Q: Entry Cc1[nH]c(=O)c(C(=O)O)c2c1CCC2 has what relative growth?
Result: 0.994 (inactive)

Q: Entry CCC(=O)Nc1ccc(Cl)cc1 has what relative growth?
Result: 1 (inactive)

Q: Entry C[C@@H]1CN([C@@H](C)CO)C(=O)Cc2cc(NC(=O)Nc3ccc(C(F)(F)F)cc3)ccc2O[C@@H]1CN(C)Cc1ccc(C(=O)Nc2ccccc2N)cc1 has what relative growth?
Result: 1 (inactive)
